src = ChEMBL document CHEMBL4725475

# Species: Homo sapiens
# assay.details: Selectivity index, ratio of inhibition for PI3Kalpha (unknown origin) to inhibition for PI3K p120 gamma (unknown origin) using phosphatidylinositol 4,5-bisphosphate as substrate in presence of ATP incubated for 60 mins by ADP-Glo assay
Please note: 1.0 applies when Selectivity ratio is 300 or greater, and 0.0 applies otherwise.

QUERY: Assess whether reported Selectivity ratio for "Cc1cc(-c2c[nH]c3ncc(-c4cc(C)c5c(c4)CN([C@@H](C)C4CC4)C5=O)cc23)ccc1C(=O)O" sits at 300 or higher.
RESULT: 1.0

QUERY: Assess whether reported Selectivity ratio for "C[C@@H](C1CC1)N1Cc2cc(-c3cnc4[nH]cc(-c5cnn(C)c5)c4c3)cc(S(=O)(=O)N(C)C)c2C1=O" sits at 300 or higher.
RESULT: 0.0

QUERY: Assess whether reported Selectivity ratio for "Cc1cc(-c2c[nH]c3ncc(-c4cc5c(c(C(F)(F)F)c4)C(=O)N([C@@H](C)C4CC4)C5)cc23)cc(C)c1C(=O)O" sits at 300 or higher.
RESULT: 0.0

QUERY: Assess whether reported Selectivity ratio for "Cc1cc(-c2cnc3[nH]cc(-c4cccc(C(=O)O)c4)c3c2)cc2c1C(=O)N([C@@H](C)C1CC1)C2" sits at 300 or higher.
RESULT: 1.0

QUERY: Assess whether reported Selectivity ratio for "Cc1cc(-c2cnc3[nH]cc(-c4ccc(CC(=O)O)cc4)c3c2)cc2c1C(=O)N([C@@H](C)C1CC1)C2" sits at 300 or higher.
RESULT: 1.0

QUERY: Assess whether reported Selectivity ratio for "Cc1cc(-c2cnc3[nH]cc(-c4ccc(C(C)(C)O)nc4)c3c2)cc2c1C(=O)N([C@@H](C)C1CC1)C2" sits at 300 or higher.
RESULT: 1.0

QUERY: Assess whether reported Selectivity ratio for "Cc1cc(-c2cnc3[nH]cc(C(=O)Nc4ccncc4)c3c2)cc2c1C(=O)N([C@@H](C)C1CC1)C2" sits at 300 or higher.
RESULT: 1.0

QUERY: Assess whether reported Selectivity ratio for "Cc1cc(-c2cnc3[nH]cc(-c4ccncc4)c3c2)cc2c1C(=O)N(C(C1CC1)C1CC1)C2" sits at 300 or higher.
RESULT: 0.0
